Reported IC50 values for the following compounds.
# measured_target: Human recombinant PDE10A (hPDE10A) (Homo sapiens, UniProt Q9Y233)
# Construct: His tag (inferred from metal chelate purification); made in house; host or cells: Sf9 insect cells (baculovirus)
# Sequence (Q9Y233 267-1055): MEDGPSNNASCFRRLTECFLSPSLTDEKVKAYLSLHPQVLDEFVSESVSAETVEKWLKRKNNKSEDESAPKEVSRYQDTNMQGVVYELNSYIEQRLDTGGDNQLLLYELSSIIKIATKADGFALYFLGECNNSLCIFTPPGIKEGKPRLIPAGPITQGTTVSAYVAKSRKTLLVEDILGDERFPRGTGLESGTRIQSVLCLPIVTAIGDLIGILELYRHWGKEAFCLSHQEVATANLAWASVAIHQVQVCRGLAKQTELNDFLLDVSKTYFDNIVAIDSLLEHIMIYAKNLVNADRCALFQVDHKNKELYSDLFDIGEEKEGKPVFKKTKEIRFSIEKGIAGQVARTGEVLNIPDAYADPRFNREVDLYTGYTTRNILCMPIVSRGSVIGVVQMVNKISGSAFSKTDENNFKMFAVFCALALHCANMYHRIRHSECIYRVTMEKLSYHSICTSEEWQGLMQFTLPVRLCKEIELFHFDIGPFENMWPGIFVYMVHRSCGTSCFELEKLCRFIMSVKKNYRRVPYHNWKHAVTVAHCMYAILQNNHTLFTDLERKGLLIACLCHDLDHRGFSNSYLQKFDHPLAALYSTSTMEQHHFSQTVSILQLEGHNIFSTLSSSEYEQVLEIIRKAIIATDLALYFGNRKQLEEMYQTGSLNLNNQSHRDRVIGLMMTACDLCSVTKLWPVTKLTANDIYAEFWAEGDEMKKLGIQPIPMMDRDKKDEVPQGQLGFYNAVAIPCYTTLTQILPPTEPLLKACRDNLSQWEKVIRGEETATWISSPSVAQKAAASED
# protocol_notes: In vitro assay PDE10A, human clone (SPA, 3H-cAMP hydrolysis)
# Format: biochemical
# condition_info: human clone (h), default; read-out: hPDE10A2 pIC50 (converted)
property_measured: IC50

INSERT INTO measurements (record_smiles, property_measured, val) VALUES
  ('C[C@@H]1CCN(C(=O)c2cc3ccc(C(F)(F)F)cc3[nH]2)C[C@H]1c1cc(C(F)F)nc2ncnn12', 'IC50', '11.7 nM'),
  ('Cc1cc([C@@H]2CN(C(=O)c3cccc4nc(C)oc34)CC[C@H]2C)n2ncnc2n1', 'IC50', '129 nM'),
  ('Cc1cc([C@H]2CN(C(=O)c3cc(C)c(Cl)c(C)c3)CC[C@@H]2C)n2ncnc2n1', 'IC50', '2240 nM'),
  ('COc1c(C)cc(C(=O)N2CC[C@@H](C)[C@](F)(c3cc(C(F)F)nc4ncnn34)C2)cc1C', 'IC50', '> 10000 nM');

* * *

Overview of recorded Emax for various compounds
# measured_target: Human recombinant PDE3A (hPDE3A) (Homo sapiens, UniProt Q14432)
# Construct: purchased Scottish Biomedical; host or cells: Sf9 insect cells
# Sequence (Q14432 whole entry): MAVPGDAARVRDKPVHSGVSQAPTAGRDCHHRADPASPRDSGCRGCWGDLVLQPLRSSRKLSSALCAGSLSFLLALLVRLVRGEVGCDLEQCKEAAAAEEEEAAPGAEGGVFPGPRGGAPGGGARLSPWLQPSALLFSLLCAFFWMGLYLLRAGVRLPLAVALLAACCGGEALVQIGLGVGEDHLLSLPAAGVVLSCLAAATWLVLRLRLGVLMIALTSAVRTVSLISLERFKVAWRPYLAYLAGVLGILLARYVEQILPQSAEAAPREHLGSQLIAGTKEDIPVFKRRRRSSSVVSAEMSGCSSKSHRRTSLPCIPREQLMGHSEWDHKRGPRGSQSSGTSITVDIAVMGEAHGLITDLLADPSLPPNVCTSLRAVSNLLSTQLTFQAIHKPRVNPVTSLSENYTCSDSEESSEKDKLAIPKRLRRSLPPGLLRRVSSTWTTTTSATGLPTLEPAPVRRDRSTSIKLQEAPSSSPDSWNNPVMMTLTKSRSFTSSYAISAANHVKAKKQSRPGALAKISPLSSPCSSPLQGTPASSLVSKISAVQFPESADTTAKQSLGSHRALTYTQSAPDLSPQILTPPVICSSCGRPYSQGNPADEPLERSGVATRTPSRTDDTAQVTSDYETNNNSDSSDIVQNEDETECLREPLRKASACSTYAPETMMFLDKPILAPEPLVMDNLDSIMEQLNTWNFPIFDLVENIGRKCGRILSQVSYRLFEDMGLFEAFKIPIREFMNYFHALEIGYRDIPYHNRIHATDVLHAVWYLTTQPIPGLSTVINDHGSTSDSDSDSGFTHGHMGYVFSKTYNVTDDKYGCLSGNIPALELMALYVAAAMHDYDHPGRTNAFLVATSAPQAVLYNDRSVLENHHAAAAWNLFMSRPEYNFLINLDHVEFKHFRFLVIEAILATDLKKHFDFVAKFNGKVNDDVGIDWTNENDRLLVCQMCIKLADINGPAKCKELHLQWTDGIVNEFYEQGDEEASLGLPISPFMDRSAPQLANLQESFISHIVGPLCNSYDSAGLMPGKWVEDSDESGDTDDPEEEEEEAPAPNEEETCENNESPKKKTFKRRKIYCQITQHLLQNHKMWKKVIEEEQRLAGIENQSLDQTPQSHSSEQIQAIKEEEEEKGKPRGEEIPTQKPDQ
# protocol_notes: In vitro assay PDE3A (SPA, 3H-cAMP hydrolysis);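 further: the method names PDE3A and the table heading PDE3B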
# Format: biochemical
# condition_info: read-out: hPDE3B Emax; read-out: Emax
property_measured: Emax (%)

INSERT INTO assay_data (record_smiles, unit_of_measure, val) VALUES
  ('Cc1cc(C(=O)N2[C@H]3CC[C@H](c4cc(C(F)F)nc5ncnn45)[C@@H]2CC3)c(F)c(C)n1', '%', 16),
  ('Cc1cc(C(=O)N2CC[C@@H](C)[C@H](c3cc(C(F)F)nc4ncnn34)C2)c(F)c(OC2CC2)n1', '%', 97),
  ('Cc1ccc2cc(C(=O)N3CC[C@@H](C)[C@H](c4cc(C(F)F)nc5ncnn45)C3)c(C)nc2c1', '%', 92),
  ('C[C@@H]1CCN(C(=O)c2nccnc2N)C[C@H]1c1cc(C(F)F)nc2ncnn12', '%', 19);

* * *

# measured_target: Human recombinant PDE10A (hPDE10A) (Homo sapiens, UniProt Q9Y233)
# Construct: His tag (inferred from metal chelate purification); made in house; host or cells: Sf9 insect cells (baculovirus)
# protocol_notes: In vitro assay PDE10A, human clone (SPA, 3H-cAMP hydrolysis)
# Assay type: biochemical
# condition_info: human clone (h), default
# maps each entry to its hPDE10A2 pIC50
property_measured: hPDE10A2 pIC50

INSERT INTO measurements (compound, measured_target, property_measured, result_operator, val) VALUES
  ('O=C(c1ccc2ncsc2c1)N1[C@H]2CC[C@@H]1[C@H](c1cc(C(F)F)nc3ncnn13)CC2 [Compound 25b]', 'Human recombinant PDE10A (hPDE10A) (Homo sapiens, UniProt Q9Y233)', 'hPDE10A2 pIC50', '<', 5),
  ('Cc1cc(C(=O)N2CC[C@H](C)[C@@H](c3cc(C)nc4ncnn34)C2)cc(C)n1', 'Human recombinant PDE10A (hPDE10A) (Homo sapiens, UniProt Q9Y233)', 'hPDE10A2 pIC50', '=', 5.01),
  ('Cc1cc(C(=O)N2CC[C@@H](C)[C@H](c3cc(C#N)nc4ncnn34)C2)cc(C)n1 [Compound 26a]', 'Human recombinant PDE10A (hPDE10A) (Homo sapiens, UniProt Q9Y233)', 'hPDE10A2 pIC50', '<', 5),
  ('Cc1cc(C(=O)N2CC[C@@H](C)[C@](F)(c3cc(C(F)F)nc4ncnn34)C2)cc(C2CC2)n1 [Compound 24b]', 'Human recombinant PDE10A (hPDE10A) (Homo sapiens, UniProt Q9Y233)', 'hPDE10A2 pIC50', '=', 5.13),
  ('Cc1cc(C(=O)N2CC[C@H](C)[C@@H](c3cc(C#N)nc4ncnn34)C2)cc(C)n1 [Compound 26b]', 'Human recombinant PDE10A (hPDE10A) (Homo sapiens, UniProt Q9Y233)', 'hPDE10A2 pIC50', '=', 6.63);
